Biological target: T1, NtrC1^C(121–387), central AAA+ ATPase domain of A. aeolicus NtrC1 (A. aeolicus, UniProt O67198 121-387)
T1 sequence (looked up): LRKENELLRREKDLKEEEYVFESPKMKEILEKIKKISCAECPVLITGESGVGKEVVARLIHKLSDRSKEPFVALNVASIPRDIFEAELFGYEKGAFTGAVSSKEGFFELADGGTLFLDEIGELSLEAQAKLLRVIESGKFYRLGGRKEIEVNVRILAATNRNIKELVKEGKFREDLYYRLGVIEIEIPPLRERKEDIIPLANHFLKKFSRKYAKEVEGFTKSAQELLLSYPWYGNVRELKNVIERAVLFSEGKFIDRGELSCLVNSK
Assay: fluorescence polarisation
Ends that are not written are not given here.
resultType: Kd

binder: WC(Alexa Fluor 488 maleimide)LLLKQDLELLTYQTQELEKLIHEEVL [Alexa488-σ^54(16-41) (A.a. σ^54(WC-16-41))]
reportedMeasurement: 1000 nM
